Test system: Heart
protocol_notes: Positive inotropic activity in Sprague-Dawley rat heart assessed as peak rise of left ventricular pressure at 100 umol/L (reference value: 1117.66 +/- 665.76 to 1242.03 +/- 495.72 mmHg/s)
Format: functional, Heart left ventricle
observed_property: Activity (mmHg/s)
Express it in mmHg/s; write the number only.

Asked: Endpoint output: Activity of `Cc1nc(C(=O)O)c(C)nc1CO` . Value?
Given back: 1299.82

Asked: Endpoint output: Activity of Cc1nc(CSCC(N)C(=O)O)c(C)nc1CO (stereo in doubt; 3) . Value?
Given back: 1333.56

Asked: Endpoint output: Activity of CC(=O)NC(CSCc1nc(C)c(CO)nc1C)C(=O)O (stereo in doubt; 4) . Value?
Given back: 1199.81

Asked: Endpoint output: Activity of Cc1nc(CO[C@@H]2O[C@H](C(=O)O)[C@@H](O)[C@H](O)[C@H]2O)c(C)nc1CO (stereo in doubt; 2) . Value?
Given back: 1127.22
